Assay: chemical genetic growth profiling, strain panel (AID 1159580);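 further: tested at 20 µM; growth read once vehicle control cultures reached saturation at 30 °C; 1 = growth at the plate median or of vehicle wells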
Details: S. cerevisiae deletion strains, growth OD, locus YHR030C, strain SLT2
About 2,000 (36%) of roughly 5,500 compounds were called active. Inconclusive results (about 18%) are left out. No stated cut-off is given here; in the data, active means normalized growth mostly below about 0.91 (no sharp cut-off); inconclusive means no clear call, values can overlap the other calls; inactive means mostly above about 0.92. The list shows a part of the results.
Form entry, call: pick from active, inactive

Record request — test call for CCOC(=O)c1ccc(N2CC3CCCCN3C2c2ccc(Cl)c(Cl)c2)cc1 (configuration not stated) inactive

Record request — test call for O=C(CSCc1c(Cl)cccc1Cl)NNC(=S)NC1CC2C=CC1C2 (configuration not stated) inactive

Record request — test call for `N#CCC(=O)N(Cc1ccccc1F)C(=O)NC1CCCCC1` inactive

Record request — test call for CC(=O)O[C@H]1CC2CCC3C(CC[C@@]4(C)C3C[C@H]([N+]3(C)CCCCC3)[C@@H]4OC(C)=O)[C@@]2(C)C[C@@H]1N1CCCCC1 (some centres not stated) inactive

Record request — test call for `Nc1c(Cl)cc(C(=O)Nc2cc(Cl)cc(Cl)c2)cc1Cl` active

Record request — test call for `Cc1csc2c(N3CCN(C(=S)Nc4ccc(C(F)(F)F)cc4)CC3)ncnc12` inactive

Record request — test call for O=C(NNC(=S)NC1CC2C=CC1C2)c1cccnc1 (configuration not stated) inactive

Record request — test call for `Cc1cc(N=Cc2cc(Cl)cc(Cl)c2O)no1` active

Record request — test call for CC(c1cc2ccccc2s1)N(O)C(N)=O (configuration not stated) inactive

Record request — test call for `CC(=O)OCCCCN1C(=O)c2ccccc2C1=O` inactive

Record request — test call for COCC1=C(C(=O)OC(C)OC(=O)OC(C)C)N2C(=O)[C@@H](NC(=O)/C(=N\OC)c3csc(N)n3)[C@H]2SC1 (some centres not stated) inactive

Record request — test call for `COC(=O)c1cc([N+](=O)[O-])ccc1S(=O)(=O)Cc1ccc(Cl)cc1` inactive

Record request — test call for O=C(O)C1c2ccccc2C(=O)N(Cc2ccc3c(c2)OCO3)C1c1cccnc1 (configuration not stated) inactive

Record request — test call for `Cc1cc(Sc2c([N+](=O)[O-])cc(C(F)(F)F)cc2[N+](=O)[O-])c(Cl)cc1Cl` inactive

Record request — test call for `CC(=O)c1c(O)cc(O)cc1O` inactive

Record request — test call for `COc1ccc(Oc2ccc(C(F)(F)F)cc2[N+](=O)[O-])cc1` inactive

Record request — test call for `CCCCC#Cc1ccc(C(=O)NNC(=O)Nc2cc(Cl)cc(Cl)c2)o1` inactive

Record request — test call for `COc1ccc(Oc2ccc([N+](=O)[O-])cc2C(=O)O/N=C(/N)c2ccc(C(F)(F)F)cc2)cc1` inactive

Record request — test call for `O=C(NNC(=O)c1ccc[nH]1)Nc1cc(Cl)cc(Cl)c1` inactive

Record request — test call for `Cc1ccc2nc3c(nc2c1)-c1ccccc1C3=O` active

Record request — test call for `O=C(Nc1cc(Cl)cc(Cl)c1)c1cc(Br)ccc1O` active

Record request — test call for Oc1cc2c(cc1O)C(c1ccccc1)CNCC2 (configuration not stated) inactive

###

Assay: chemical genetic growth profiling, strain panel (AID 1159580);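 further: tested at 20 µM; growth read once vehicle control cultures reached saturation at 30 °C; 1 = growth at the plate median or of vehicle wells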
Conditions: S. cerevisiae deletion strains, growth OD, locus YDR101C, strain arx1, stronger effect = lower value
The whole screen tested about 5,500 compounds, of which about 2,000 (36%) were called active. Inconclusive results (about 18%) are left out. This is one part of the list.
Give normalized growth for every item shown.
Keep it simple and answer with nothing but the number.

# query: normalized growth of entry `CC(C)N1C(=O)c2ccccc2NS1(=O)=O` 0.999

# query: normalized growth of entry `CC[C@H]1OC(=O)[C@H](C)[C@@H](O[C@H]2C[C@@](C)(OC)[C@@H](O)[C@H](C)O2)[C@H](C)[C@@H](O[C@@H]2O[C@H](C)C[C@H](N(C)C)[C@H]2O)[C@](C)(O)C[C@@H](C)/C(=N/OCOCCOC)[C@H](C)[C@@H](O)[C@]1(C)O` 0.994

# query: normalized growth of entry `CNC(=O)N(C)c1nnc(C(C)(C)C)s1` 1.01

# query: normalized growth of entry C[N+]1(C)CCCC(OC(=O)C(O)(c2ccccc2)c2ccccc2)C1 (stereo not given) 1

# query: normalized growth of entry COC(=O)C[C@H]1C(C)(C)[C@H](O)[C@@H]2CC3=C4CC(O)O[C@@H](c5ccoc5)[C@]4(C)CCC3[C@@]1(C)C2=O (stereo not given in full) 0.983

###

Assay: chemical genetic growth profiling, strain panel (AID 1159580);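 further: tested at 20 µM; growth read once vehicle control cultures reached saturation at 30 °C; 1 = growth at the plate median or of vehicle wells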
Settings: S. cerevisiae deletion strains, growth OD, locus YDR159W, strain sac3, stronger effect = lower value
Hit rate of the full screen: of about 5,500 compounds, about 2,000 (36%) were called active. Inconclusive results (about 18%) are left out. The list shows a part of the results.
quantity-measured: normalized growth
Keep it simple and answer with nothing but the number.

# query: normalized growth of entry `O=C(O)CCC(=O)OC[C@@H](NC(=O)C(Cl)Cl)[C@H](O)c1ccc([N+](=O)[O-])cc1` 0.997

# query: normalized growth of entry `CON` 0.993

# query: normalized growth of entry CC1CC(OC(=O)c2ccccc2O)CC(C)(C)C1 (centres undefined) 0.977

# query: normalized growth of entry C[C@H]1C(=O)CCC2[C@]3(C)CC[C@@]4(C)C5CC(C)(C)CC[C@]5(C)CC[C@]4(C)C3CC[C@@]21C (some centres undefined) 0.981

# query: normalized growth of entry CC12CCC(OC(=O)c3ccccc3)CC1CCc1ccccc12 (centres undefined) 0.99

# query: normalized growth of entry CC(=O)NC1C(O)OC(COS(=O)(=O)O)C(OC2OC(C(=O)O)C(OC3OC(CO)C(OC4OC(C(=O)O)C(O)C(O)C4OS(=O)(=O)O)C(OS(=O)(=O)O)C3NS(=O)(=O)O)C(O)C2OS(=O)(=O)O)C1O (centres undefined) 0.992

# query: normalized growth of entry CCC1(C2=NCCN2)Cc2ccccc2O1 (centres undefined) 0.991

# query: normalized growth of entry `O=C1C=CC(=O)c2c(O)c(Cl)c(Cl)c(O)c21` 0.817

# query: normalized growth of entry COC1=CC23CCCN2CCc2cc4c(cc2C3C1O)OCO4 (centres undefined) 1.04

# query: normalized growth of entry Oc1cc2c(cc1O)C(c1ccccc1)CNCC2 (centres undefined) 1.01

# query: normalized growth of entry `COc1ccc([C@@H](C)C(=O)c2ccc(O)cc2O)cc1` 0.969

# query: normalized growth of entry `CC(C)[C@@H]1CC[C@@H](C)C[C@H]1OC(=O)c1ccccc1` 1.02

# query: normalized growth of entry `O=C(N[C@@H](CO)[C@H](O)c1ccc([N+](=O)[O-])cc1)C(Cl)Cl` 0.982

# query: normalized growth of entry `CCCCCCCCCCCCCCCC(=O)OC[C@H](NC(=O)C(Cl)Cl)[C@H](O)c1ccc([N+](=O)[O-])cc1` 1.03

###

Assay: chemical genetic growth profiling, strain panel (AID 1159580);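 further: tested at 20 µM; growth read once vehicle control cultures reached saturation at 30 °C; 1 = growth at the plate median or of vehicle wells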
Details: S. cerevisiae deletion strains, growth OD, locus YKL101W, strain HSL1, stronger effect = lower value
About 2,000 (36%) of roughly 5,500 compounds were called active. Another 18% or so got no clear call; they are omitted. The list shows a part of the results.
Give normalized growth for every item shown.
Keep it simple and answer with nothing but the number.

# query: normalized growth of entry `COC(=O)c1cc(I)c(OC(C)=O)c(I)c1` 0.902

# query: normalized growth of entry `S=C(NCc1cccs1)Nc1cc(Cl)cc(Cl)c1` 0.923

# query: normalized growth of entry `N/C(=N/OCc1c(F)cccc1Cl)c1ccc(Cl)cc1` 0.911

# query: normalized growth of entry `O=S(=O)(Nc1cc(C(F)(F)F)cc(C(F)(F)F)c1)c1ccc(Cl)s1` 0.685

# query: normalized growth of entry CCOC(=O)C(O)(c1ccc(NC(=O)c2ccc(Cl)c(Cl)c2)cc1)C(F)(F)F (stereo not drawn) 0.901

# query: normalized growth of entry `COC(=S)Nc1cc(Cl)cc(Cl)c1` 0.762

# query: normalized growth of entry `O=C(NCc1ccc2c(c1)OCO2)c1cc2ccccc2s1` 0.573

# query: normalized growth of entry `O=C(/C=C/c1ccc(Cl)cc1)Nc1cccc(Cl)c1` 0.872

# query: normalized growth of entry `O=C1C(NCc2ccccc2)=C(NCc2ccccc2)C(=O)c2ccccc21` 0.875

# query: normalized growth of entry `COc1ccc(Oc2ccc([N+](=O)[O-])cc2C(=O)O/N=C(/N)c2ccc(C(F)(F)F)cc2)cc1` 0.998

# query: normalized growth of entry `Cc1cc(Sc2c([N+](=O)[O-])cc(C(F)(F)F)cc2[N+](=O)[O-])c(Cl)cc1Cl` 0.995

# query: normalized growth of entry CCOC(=O)C(NC(=O)c1cccc(Cl)c1)(Nc1nc2ccccc2s1)C(F)(F)F (stereo not drawn) 0.929

# query: normalized growth of entry `Cc1ccc2nc3c(nc2c1)-c1ccccc1C3=O` 0.264
